// reported melting point per item

Previously resolved entries follow.
# Compound, melting point
rows = [
    ("COc1cc(-c2cnc3[nH]cc(C(=O)C4(C)CCCCC4)c3n2)cc(OC)c1OC", "246 to 247 °C"),
    ("Cc1cc(SC(C)C)c(NC(=O)CCCCSc2nc3ccccc3o2)c(SC(C)C)n1", "129 to 130 °C"),
    ("Cc1sc(C(=O)OCc2ccccc2)cc1[N+](=O)[O-]", "57 to 58 °C"),
]

Give melting point for the following compound: `CCCCCCCN(CCC(C)(C)CCSc1nc(-c2ccccc2)c(-c2ccccc2)[nH]1)C(=O)Nc1ccc(F)cc1F`
138 to 139 °C

Give melting point for the following compound: `COc1ccc(Nc2cc(-c3ccccc3)nc(Nc3ccc(OC)c(Cl)c3)n2)cc1Cl`
250 to 254 °C

Give melting point for the following compound: CN1C(=O)C2C3C=CC(CC3)C2S1=O (centres undefined)
118 to 120 °C

Give melting point for the following compound: CNC(=O)c1ccc(N2CCN(Cc3cc4c(c(OC(F)F)c3)OC(C)C(=O)N4)CC2)cc1 (centres undefined)
210 to 213 °C

Give melting point for the following compound: `Cn1nnnc1Cc1ccc(NC(=O)/C=C/c2cnn(C)c2-c2ccc(F)cc2)cc1`
243 to 244 °C

Give melting point for the following compound: `O=C(CC(=O)c1snc(Cl)c1Cl)c1ccc(O)cc1`
224 to 227 °C

Give melting point for the following compound: `CC(=O)Nc1ccc(S(=O)(=O)C/C=C2/CN3C(=O)C[C@H]3O2)cc1`
110 to 111 °C

Give melting point for the following compound: CC(=O)SCC(CCCc1ccccc1)C(=O)Nc1cccc(C(=O)O)c1 (centres undefined)
142 to 145 °C

Give melting point for the following compound: `Cc1ccc(C(=O)Nc2ccc(N3CCCCC3)c(C(F)(F)F)c2)cc1Nc1nccc(-c2cccnc2)n1`
201 to 202 °C

Give melting point for the following compound: `COc1ccc(CS[C@H]2C[C@@H](C(N)=O)N(C)C2)cc1`
113 to 114 °C

Give melting point for the following compound: `OCCC#Cc1ccc(-c2ccc(F)cc2)cc1`
134 °C

Data provenance: a melting point compilation (Tetko et al.; mined from patent text by program, amines drawn as free bases though some values may be those of a salt)
